// pIC50 lookup, one value per entry
test system: MOLM-13 cells; assay: Proliferation assay MOLM-13 (Method 3, Cell Titre-Glo); format: cell-based; details: Homo sapiens; MOLM-13, 72-hour exposure; read-out: Inhibition of MOLM-13 cell proliferation IC50
Note on units: pIC50 is unitless, being -log10 of a concentration expressed in mol/L.

Compound	pIC50
CS(=O)(=O)Cc1cccc(Nc2ncc(F)c(-c3ccc(F)c4ccoc34)n2)c1 [Example 1]	6.77

Kindly review the next compound as well.
Which pIC50 is reported for this compound? Cc1cc(CS(C)(=O)=O)cc(Nc2ncc(F)c(-c3ccc(F)c4ccoc34)n2)c1 [Example 4]
7.34

###

IC50 reference
biological target: CDK2/CycE (Homo sapiens, UniProt P24941); construct: GST; purchased ProQinase GmbH (Freiburg, Germany); host or cells: insect cells (Sf9); assay: CDK2/CycE high ATP kinase assay (Method 2b, TR-FRET); format: biochemical; conditions: 2 mM ATP
Just the number please, in nM, no unit attached.

Compound	System name	Attribute measured	Unit spec	Quantitative readout
CS(=O)(=O)Cc1cccc(Nc2ncc(F)c(-c3ccc(F)c4ccoc34)n2)c1 [Example 1]	CDK2/CycE (Homo sapiens, UniProt P24941)	IC50	nM	1320
CCS(=O)(=O)Cc1cccc(Nc2ncc(F)c(-c3ccc(F)c4ccoc34)n2)c1 [Example 2]	CDK2/CycE (Homo sapiens, UniProt P24941)	IC50	nM	917

Now take the following compound into account.
GET /values?readout=IC50&system=CDK2/CycE (Homo sapiens, UniProt P24941)&item= Cc1cc(CS(C)(=O)=O)cc(Nc2ncc(F)c(-c3ccc(F)c4ccoc34)n2)c1 [Example 4]
8560

###

Attribute: pIC50
system: B16F10 cells; assay: Proliferation assay B16F10 (Method 3, crystal violet); format: cell-based; conditions: Mus musculus, B16-F10, 96 h; B16F10, 4 days incubation; read-out: Inhibition of B16F10 cell proliferation IC50
Please note pIC50 is a logarithmic value: minus log10 of concentration in mol/L. Answer with that number alone.

Worked examples follow.
Molecule	pIC50
CCS(=O)(=O)Cc1cccc(Nc2ncc(F)c(-c3ccc(F)c4ccoc34)n2)c1 [Example 2]	7.00
CS(=O)(=O)Cc1cc(F)cc(Nc2ncc(F)c(-c3ccc(F)c4ccoc34)n2)c1 [Example 3]	6.61
Cc1cc(CS(C)(=O)=O)cc(Nc2ncc(F)c(-c3ccc(F)c4ccoc34)n2)c1 [Example 4]	6.62

Please give the measured pIC50 for this molecule: CS(=O)(=O)Cc1cccc(Nc2ncc(F)c(-c3ccc(F)c4ccoc34)n2)c1 [Example 1]
6.41
